Data provenance is PubChem BioAssay (Tox21).

# TEST DETAILS: qHTS assay to identify small molecule agonists of the TGF-beta/Smad signaling pathway (AID 1346859); note: % is set by controls: 0 for no effect and ±100 for the full control effect
# TEST SETTINGS: SBE-bla HEK293T, TGF-beta/Smad beta-lactamase reporter, 5 h; series mostly up to 76.8 µM
Results filed as inconclusive are left out. Active and inactive are the calls of the source. Calls come from the whole dose curve; as a rule, active = well fitted activation curve with a large enough effect in the signal ratio in the repeat runs (not every such curve was filed as active); inconclusive = weak or mixed curves; inactive = flat fitted curve, though single readings scatter; the % refers to the signal ratio.
READOUT NAME: activation

Illustrative cases are given below, each with its answer.
{"COMPOUND": "FC(F)(F)c1ccccc1-n1ccnc1", "READOUT NAME": "activation", "READOUT VALUE": "inactive"}
{"COMPOUND": "C=COCCOCCOCCOC=C", "READOUT NAME": "activation", "READOUT VALUE": "inactive"}
{"COMPOUND": "COc1ccc2nc(SCc3ncc(C)c(OC)c3C)[nH]c2c1", "READOUT NAME": "activation", "READOUT VALUE": "inactive"}
{"COMPOUND": "O=S(=O)(O)c1cc(O)c2ccc(Nc3ccccc3)cc2c1", "READOUT NAME": "activation", "READOUT VALUE": "inactive"}

Dear reader, for each entry below, please note its activation.
1. O=C(O)c1ccc(Cl)cc1Cl
2. O=C(O)Cc1ccc(Cl)cc1Cl
3. Cc1[nH]cnc1-c1ccc(Cl)cc1
4. C=Cc1ccccn1
5. COc1cc(NS(=O)(=O)c2ccc(N)cc2)nc(OC)n1
6. Cc1cccc2nccnc12
7. CC(COC(C)(C)C)OCCCO (stereo not given)

1. inactive
2. inactive
3. inactive
4. inactive
5. inactive
6. inactive
7. inactive

Each compound below has a recorded value; state its activation.
1. CC(C)(C)c1n[nH]c(=S)n(N)c1=O
2. CCCCN
3. Cc1cc2cc3c(C)cc(=O)oc3c(C)c2o1

inactive
inactive
inactive

Your task in this section: give activation for each listed record.
1. Oc1ccccc1-c1nnco1
2. Cc1ccc2ccc(Cl)cc2n1
3. COc1ccc(-c2cc(=O)c3c(O)cc(O[C@@H]4O[C@H](CO[C@@H]5O[C@@H](C)[C@H](O)[C@@H](O)[C@H]5O)[C@@H](O)[C@H](O)[C@H]4O)cc3o2)cc1O
4. CN1CCN(CC(=O)N2c3ccccc3C(=O)Nc3cccnc32)CC1
5. CCOc1cc(NC(C)=O)ccc1C(=O)OC
6. N[C@@H](COP(=O)(O)O)C(=O)O
7. Cc1cc(NC(=O)C2=C(O)c3ccccc3S(=O)(=O)N2C)no1

1. inactive
2. inactive
3. inactive
4. -0.857% [at 6.97 µM] (inactive)
5. inactive
6. -0.654% [at 15.8 µM] (inactive)
7. inactive
